Quick reference: IC50 of the listed items.
experimental_target: human DP2 receptor (Homo sapiens, UniProt Q9Y5Y4)
Construct: expressed in transfected cells
Sequence (Q9Y5Y4 whole entry): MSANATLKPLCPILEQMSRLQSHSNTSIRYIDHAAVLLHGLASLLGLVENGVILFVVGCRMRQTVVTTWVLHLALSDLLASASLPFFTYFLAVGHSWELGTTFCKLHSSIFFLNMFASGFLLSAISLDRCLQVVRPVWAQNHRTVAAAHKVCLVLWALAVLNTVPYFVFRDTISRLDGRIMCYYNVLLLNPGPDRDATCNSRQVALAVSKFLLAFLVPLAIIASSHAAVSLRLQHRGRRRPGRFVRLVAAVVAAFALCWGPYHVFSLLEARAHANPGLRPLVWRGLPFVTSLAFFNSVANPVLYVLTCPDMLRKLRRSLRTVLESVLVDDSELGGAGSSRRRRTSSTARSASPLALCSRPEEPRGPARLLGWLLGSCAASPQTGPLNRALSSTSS
experimental_details: DP2/CRTH2 radioligand binding assay using [3H]PGD2
reported_conditions: membranes of HEK293 cells expressing recombinant human DP2; without human serum albumin; read-out: hDP2

In plain terms, CN(C1CCc2c(c3ccccn3c2CC(=O)O)C1)S(=O)(=O)c1ccc(F)cc1 (centres unmarked) has a documented IC50 of < 300 nM

Lab note: next molecule to report on.
In plain terms, CN(C1CCc2c(CC(=O)O)c3ccccn3c2C1)S(=O)(=O)c1ccc(F)cc1 (centres unmarked) has a documented IC50 of < 300 nM

----------
experimental_target: human DP1 receptor (Homo sapiens)
Sequence (Q13258 1-359): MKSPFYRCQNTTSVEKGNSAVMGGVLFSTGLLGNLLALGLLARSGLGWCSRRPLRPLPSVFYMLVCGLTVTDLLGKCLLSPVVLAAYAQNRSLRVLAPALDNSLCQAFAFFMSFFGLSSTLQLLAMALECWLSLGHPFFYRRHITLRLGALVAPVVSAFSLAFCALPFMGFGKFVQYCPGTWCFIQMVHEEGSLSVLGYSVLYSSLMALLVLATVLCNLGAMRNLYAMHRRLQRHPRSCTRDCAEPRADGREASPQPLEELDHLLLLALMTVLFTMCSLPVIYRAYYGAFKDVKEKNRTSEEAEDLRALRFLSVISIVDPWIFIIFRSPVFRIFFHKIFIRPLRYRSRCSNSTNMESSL
pIC50: −log10 of the molar value.
reported_metric: pIC50

In plain terms, CN(C1CCc2c(c3ccccn3c2CC(=O)O)C1)S(=O)(=O)c1ccc(F)cc1 (stereo not shown) has a documented pIC50 of < 6.00

----------
experimental_target: human DP2 receptor (Homo sapiens, UniProt Q9Y5Y4)
Construct: expressed in transfected cells
experimental_details: DP2/CRTH2 radioligand binding assay using [3H]PGD2
reported_conditions: membranes of HEK293 cells expressing recombinant human DP2; plus 0.2% human serum albumin; read-out: hDP2 μM (+HSA)
Method: The ability of a compound to bind to the human DP2 receptor is assessed via a radioligand binding assay using [^3H]PGD2. […] Scintillant is then added to the plates and the radioactivity retained on the filters is determined on a Packard TopCount (Perkin Elmer). Specific binding is determined as total radioactive binding minus non-specific binding in the presence of 10 μM PGD2. IC50s were determined using GraphPad prism analysis of drug titration curves.
reported_metric: IC50

Entry CN(C1CCc2c(c3ccccn3c2CC(=O)O)C1)S(=O)(=O)c1ccc(F)cc1 (centres unmarked) [Compound 2-1] , tested on human DP2 receptor (Homo sapiens, UniProt Q9Y5Y4), has a reported IC50 of < 300 nM

Others:
Entry CN(C1CCc2c(CC(=O)O)c3ccccn3c2C1)S(=O)(=O)c1ccc(F)cc1 (centres unmarked) [Compound 1-1] , tested on human DP2 receptor (Homo sapiens, UniProt Q9Y5Y4), has a reported IC50 of < 300 nM
